Tested on: Schistosoma mansoni schistosomula (Liberian)
Experiment Description: drug effect (1 - score/DMSO control score) (fraction); higher = more antischistosomal effect, active = 0.5 or more; extreme values may be limits of the assay
Condition Set: 72 h; 10 µM
Please respond with reported drug effect for every item in the list.

Provide value of drug effect for this record tested with Schistosoma mansoni schistosomula (Liberian): CCc1nc2ccc(C(=O)NCc3ccc4c(c3)OCO4)cn2c1N(C)Cc1cccs1
0.167 (inactive)

Another compound to check: CN(C)c1cc(NC(=O)Nc2ccccc2)c2ccccc2n1
0.455 (inactive)

Record: Cc1ccc2nc(C)c(-c3ccn(Cc4ccccc4)n3)n2c1
0.111 (inactive)

Please do the same for CC(Oc1ccccc1)C(=O)Nc1nc(-c2ccccn2)cs1 (stereo unspecified) as well.
0.625 (active)

Now consider CO[C@H]1/C=C/O[C@@]2(C)Oc3c(C)c(O)c4c(O)c(/c(=C/NN5CCN(C)CC5)c(O)c4c3C2=O)=N\C(=O)/C(C)=C\C=C/[C@H](C)[C@H](O)[C@@H](C)[C@@H](O)[C@@H](C)[C@H](OC(C)=O)[C@@H]1C .
0.105 (inactive)

Record: Cc1cc(C)nc(-n2nc(C)cc2Nc2ccccc2)n1
0.25 (inactive)

Follow-up entry: CNC(=O)C1Cc2c([nH]c3cc(Cl)ccc23)C2(CCN(CCc3ccccc3)CC2)N1 (stereo unspecified)
0.394 (inactive)

And the next one, O=C(C1CCN(c2nnc(-n3cccc3)s2)CC1)N1CCC(Cc2ccccc2)CC1 ?
< 0 (inactive)

Okay, and COc1cc(NC(=O)Cc2nn(C)c(=O)c3ccccc23)ccc1Cl ?
0.0625 (inactive)

And then Nc1ncnc2[nH]nc(Cc3cccc4ccccc34)c12 , what is it?
0.562 (active)

Try this compound next: Cn1c(=O)c2c(S(C)(=O)=O)snc2n(C)c1=O
1 (active)

Follow-up item: O=C(Nc1ccc2c(c1)B(O)OC2)c1ccccc1C(F)(F)F
0.167 (inactive)

Here is the next compound: CNC(=O)c1nn(C)c2c1C(C)(C)Cc1cnc(Nc3ccc(N4CCN(C)CC4)cc3)nc1-2
0.891 (active)

Again, but for Cc1cc2nc(NC(=O)C(C)(C)C)nc(Cl)c2n1Cc1ccc(Cl)cc1
0.345 (inactive)

Cool, now O=C(Nc1cccc(-c2ccc(NCCCN3CCCC3)nc2)c1)c1ccccc1
0.515 (active)

Repeat with O=C1[C@@H](Oc2ccccc2)[C@@H](c2ccc(Cl)cc2)N1CCn1cnc2c(NCc3ccccc3)ncnc21
0.158 (inactive)

Ok, now Nc1ncnc2c1ncn2C[C@@H](O)[C@@H](O)C(=O)O
0.222 (inactive)

Again, but for Cc1cc(NCCc2ccccc2)nc(NC(=N)Nc2ccc(Cl)cc2)n1
1 (active)

Okay, and CC(C)(C)n1nc(-c2ccccc2)c2c(N)ncnc21 ?
0.127 (inactive)

// next record c1ccc(Oc2ccc(-c3cc(C4CCOCC4)[nH]n3)cc2)cc1
0.127 (inactive)

Now this one: CCOC(=O)c1noc(N)c1-c1ccccc1
0.0909 (inactive)

Now try O=C(OCc1ccccc1)N1CCC(c2cc(-c3ccncc3)c(-c3ccc(F)cc3)[nH]2)CC1 .
0.188 (inactive)

Another: CCc1ccc([C@@H]2C[C@H](C(F)(F)F)n3ncc(C(=O)NCc4ccc(OC)cc4)c3N2)cc1
0.0556 (inactive)

// next record COC(=O)C1=C(C)NC(C)=C(C(=O)OC(C)C)C1c1cccc2nonc12 (stereo unspecified)
0.111 (inactive)

// same read-out, input: CCC(NC(=O)c1ccccc1NC(=O)c1ccc(C)cc1)C(=O)OC (stereo unspecified)
0.25 (inactive)

Would you kindly repeat that for Nc1ccc2ncnc(Nc3ccc(OCc4cccc(F)c4)c(Cl)c3)c2c1 ?
0.879 (active)

Same question, Cc1ccc2[nH]c(C3CCCNC3)c(-c3ccncc3)c2c1 (stereo unspecified) this time
0.111 (inactive)

Queued: CC1=Nc2ccc(Cl)cc2C(O)(c2ccc(C)cc2)N1CCN1CCCCC1 (stereo unspecified)
0.375 (inactive)

Likewise for CS(=O)(=O)Cc1nc2ccccc2oc1=O ?
0.455 (inactive)

What would you report for CC1(COc2ccc(N3CCC(Oc4ccc(OC(F)(F)F)cc4)CC3)cc2)Cn2cc([N+](=O)[O-])nc2O1 (stereo unspecified) ?
0.0625 (inactive)

Proceed to N=C(N)Nc1ccc(-c2ccc(-c3ccc(N=C(N)N)c(Cl)c3)o2)cc1Cl
0.0625 (inactive)
